Test system: SR leukemia
Assay: NCI tumour cell line growth inhibition, 48 h
observed_property: TGI

* O=C(CN(c1ccc(S(=O)(=O)O)cc1)c1ccc(S(=O)(=O)O)cc1)Nn1cnc2ccc(S(=O)(=O)N(c3ccc(S(=O)(=O)O)cc3)c3ccc(S(=O)(=O)O)cc3)cc2c1=O | > 100 µM
* O=C(Nc1ccc2c(c1)OCO2)C(=O)c1c[nH]c2cc(F)ccc12 | 19.6 µM
* Nc1ccc2c(c1)Oc1c(F)c(F)cc3c(=O)c(C(=O)O)cn-2c13 | > 100 µM
* CCC1=NC(C(F)(F)F)(C(F)(F)F)N=C(/N=C(/N)N(C)C(C(C)C)P(=O)(OC(C)C)OC(C)C)O1 (configuration not stated) | > 100 µM
* CCCCCCCCCCCCCCCC(=O)OC1C(O)C(CO)OC(OC)C1NC(=O)N(CCCl)N=O (configuration not stated) | 23.7 µM
* COCCOCCOCCOc1ccc(C(C#N)N(CCc2ccccc2)C(=O)c2cc(C(=O)N(CCc3ccccc3)C(C#N)c3ccc(OCCOCCOCCOC)cc3)cc(C(=O)N(CCc3ccccc3)C(C#N)c3ccc(OCCOCCOCCOC)cc3)c2)cc1 (configuration not stated) | > 100 µM
* C[N+](C)([O-])Cc1cc(-c2ccccc2)ccc1O | > 100 µM
* COc1ccc(N2C(=O)/C(=C\c3cccc(Oc4ccccc4)c3)SC2c2ccccc2)cc1 (configuration not stated) | 59.2 µM
* O=C1C(Cl)=C(N2CCN(c3ccccn3)CC2)C(=O)c2ncccc21 | 3.2 µM
* CCN(CC)C(=S)SS(=O)(=O)c1ccccc1[N+](=O)[O-] | > 42.6 µM
* COC(=O)c1ccc2c(c1)c1c(C)c3ccncc3c(C)c1n2C | 3.39 µM
* O=C(CCOS(=O)(=O)CF)N1CCN(C(=O)CCOS(=O)(=O)CF)CC1 | > 100 µM
* C=C1CC(CN2CCC(=O)NC2=O)(c2ccccc2)OC1=O (configuration not stated) | 5.26 µM
* OC1CCC[C@@H]1Sc1ccccc1 (some centres not stated) | > 100 µM
* COC(=O)C1C(C(=O)OC)C1(Br)CBr (configuration not stated) | 46.8 µM
* Cc1cn2c(/C=C3/C(=O)Nc4ccc(F)cc43)c(C)nc2s1 | 5.14 µM
* Nc1ccccc1N=Nc1c(S(=O)(=O)O)cc2cc(S(=O)(=O)O)cc(O)c2c1O | > 100 µM
* Cc1ccc(NC(=O)CC/C(CC(=O)C(C)(C)C)=N\Nc2ccc([N+](=O)[O-])cc2[N+](=O)[O-])cc1C | > 100 µM
* Oc1ccc(-c2cn3cc(C(F)(F)F)ccc3n2)cc1 | > 100 µM
* N#CCCN(CCC#N)c1ccc(/C=C2\N=C(c3cc([N+](=O)[O-])ccc3Cl)N(NC(=O)CC(=O)Nc3ccccc3Cl)C2=O)cc1 | > 100 µM
* O=C(O)c1ccc(Nc2nc3cc(C(F)(F)F)ccc3nc2-c2ccccc2)cc1 | > 100 µM
* CC(=N)N(C)O | 68.4 µM
* CC1=NN(C(=O)c2ccncc2)C(=O)C1N=Nc1ccc2ccccc2c1 (configuration not stated) | > 31.7 µM
* N#Cc1c(-c2ccccc2)c(C#N)c(=O)n(C2OC(CO)C(O)C(O)C2O)c1S (configuration not stated) | > 100 µM
* C=CCn1cnc2c(=O)[nH]c(Nc3ccccc3)nc21 | > 100 µM
* CC(=O)O[C@H]1C(=O)[C@@]2(C)[C@H]([C@H](OC(=O)c3ccccc3)[C@@]3(O)C[C@H](O)C(C)=C1C3(C)C)[C@]1(OC(C)=O)CO[C@@H]1C[C@@H]2O | > 100 µM
* COc1cc2c(c(OC(C)=O)c1OC(C)=O)-c1ccc(SC)c(=O)cc1C(NC(C)=O)CC2 (configuration not stated) | > 100 µM
* Cc1nnc(-c2ccc(C)c(-c3ccc(C(=O)NCc4ccc(Cl)cc4)cc3)c2)o1 | > 25 µM
* CC(CCCC1SCC2NC(=O)NC21)C(=O)O (configuration not stated) | > 100 µM
* Cc1cc(NNC(=O)c2ccccc2O)nc(Nc2nc3ccccc3o2)n1 | 7.31 µM
* O=C(O)CCSC(=O)Nc1ccccc1Cl | > 100 µM
* O=C1NC(S(=O)(=O)O)=NNC12c1ccccc1-c1ccccc12 | > 10 µM
* COCOCC[C@@H]1CC=CC(NC(=O)OCc2ccccc2)C1/C=C/C(=O)CCC1OCCO1 (some centres not stated) | 23.6 µM
* COc1ccc(CNC(=O)[C@H](Cc2ccc(O)cn2)NC(C)=O)cc1 | > 100 µM
* O=C(O)CC1CC=C[C@H]2c3cc4c(cc3C(=O)NC12)OCO4 (some centres not stated) | > 75 µM
* O=C1CN(c2ccc(Cl)cc2)C(=O)CN1NCNN1CC(=O)N(c2ccc(Cl)cc2)CC1=O | > 100 µM
* Cn1c(=O)oc2cc(Br)ccc21 | > 100 µM
* O=C(c1ccccc1)c1c(CC(O)c2ccccc2)n(C(=O)c2ccccc2)c2ccccc12 (configuration not stated) | 72.8 µM
* O=S(=O)(Nc1ccc2ccccc2c1)c1ccc(-c2cnc(C3CC3)o2)cc1 | > 100 µM
* NC(N)=NS(=O)(=O)c1ccc(NC(=O)c2ccc3[nH]c4ccccc4c(=O)c3c2)cc1 | > 100 µM
* CCCOC1OC(CS(=O)(=O)O)C(O)C(O)C1O (configuration not stated) | > 100 µM
* O=C1C2ON3c4ccccc4C(=O)C3(c3ccccc3)C2C(=O)N1c1ccccc1 (configuration not stated) | > 100 µM
